- target-desc: C-IAP1 BIR3 (Homo sapiens, UniProt Q13490)
- Construct: 0.2 μM C-IAP1 BIR3
- Sequence (Q13490 253-363 limits assumed): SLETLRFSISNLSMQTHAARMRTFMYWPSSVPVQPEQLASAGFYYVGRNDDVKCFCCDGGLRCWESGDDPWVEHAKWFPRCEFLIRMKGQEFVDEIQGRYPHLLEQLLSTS
- experiment: Fluorescence polarization peptide binding assay, C-IAP1 BIR3
- experimental-context: determined from the IC50 values (procedure of Keating et al.)
Ki strictly under 1000 nM means met; at 1000 nM or over means not met.

1. CN[C@@H](C)C(=O)N[C@H](C(=O)N[C@H](C(=O)NCC(c1ccccc1)c1ccccc1)C(C)(C)O)C(C)C : not met
2. CN[C@@H](C)C(=O)N[C@H](C(=O)N(C)[C@H](C(=O)Nc1ccccc1-c1ncccn1)C(C)C)C1CCCCC1 : not met
3. CN[C@@H](C)C(=O)N[C@H](C(=O)N[C@H](C(=O)Nc1snnc1-c1ccccc1)C(C)(C)SCNC(C)=O)C1CCCCC1 : met
4. CN[C@@H](C)C(=O)N[C@H](C(=O)N(C)[C@H](C(=O)Nc1snnc1-c1ccccc1)C(C)(C)SC)C1CCCCC1 : met
5. CN[C@@H](C)C(=O)N[C@H](C(=O)N[C@H](C(=O)Nc1snnc1-c1ccccc1)C(C)(C)SCc1ccc(OC)cc1)C1CCCCC1 : met
